Form field: residual activity (one value per entry).
# TARGET DESC: Cyclin-dependent kinase 7/ cyclin H (Homo sapiens) (UniProt P51946+P50613)
# MEASUREMENT CONDITIONS: at 1 µM
EXPERIMENTAL READOUT: residual activity

> print(dat)
                     structure.smiles.string                               target.desc  test.result
 1  Nc1nc(Nc2ccc(S(N)(=O)=O)cc2)nn1C(=O)c1c(F)cccc1F  Cyclin-dependent kinase 7/ cyclin H (Homo sapiens) (UniProt P51946+P50613)          57%
 2  CCCC(=O)Oc1ccc2[nH]c(C(=O)c3cc4ccccc4[nH]3)cc2c1  Cyclin-dependent kinase 7/ cyclin H (Homo sapiens) (UniProt P51946+P50613)          83%
 3           Nc1ncnc2[nH]nc(Nc3ccc(F)cc3)c12  Cyclin-dependent kinase 7/ cyclin H (Homo sapiens) (UniProt P51946+P50613)          98%
 4  c1ccc(-c2cnc(Nc3ccc(OCCN4CCCC4)cc3)s2)cc1  Cyclin-dependent kinase 7/ cyclin H (Homo sapiens) (UniProt P51946+P50613)          70%
 5  Cn1c2ccccc2c2c3c(c4c5ccccc5n(CCC#N)c4c21)CNC3=O  Cyclin-dependent kinase 7/ cyclin H (Homo sapiens) (UniProt P51946+P50613)          74%
 6  NC(=O)c1ccc(-c2nc(-c3ccc4c(c3)OCCO4)c(-c3ccccn3)[nH]2)cc1  Cyclin-dependent kinase 7/ cyclin H (Homo sapiens) (UniProt P51946+P50613)          92%
 7  NCCNc1ncc(C(N)=O)c(Nc2cccc(C(F)(F)F)c2)n1  Cyclin-dependent kinase 7/ cyclin H (Homo sapiens) (UniProt P51946+P50613)          78%
 8     Cc1cc(C)c(/C=C2\C(=O)Nc3ccccc32)[nH]1  Cyclin-dependent kinase 7/ cyclin H (Homo sapiens) (UniProt P51946+P50613)          64%
 9    CC(C)N(CCC(=O)c1ccc2ccccc2c1)Cc1ccccc1  Cyclin-dependent kinase 7/ cyclin H (Homo sapiens) (UniProt P51946+P50613)          83%
10    O=C1NC(=O)c2c1c1c3ccccc3[nH]c1n1cncc21  Cyclin-dependent kinase 7/ cyclin H (Homo sapiens) (UniProt P51946+P50613)          87%
11  Nc1ncnc2c1c(-c1ccc(Oc3ccccc3)cc1)cn2C1CCCC1  Cyclin-dependent kinase 7/ cyclin H (Homo sapiens) (UniProt P51946+P50613)          78%
12                   Nc1n[nH]c2nc3ccccc3nc12  Cyclin-dependent kinase 7/ cyclin H (Homo sapiens) (UniProt P51946+P50613)          89%
13  O=C(c1cc2cc(O)ccc2[nH]1)c1cc2cc(O)ccc2[nH]1  Cyclin-dependent kinase 7/ cyclin H (Homo sapiens) (UniProt P51946+P50613)          76%
14  COc1ccc2c(c1)c(C1=C(c3c[nH]c4ccccc34)C(=O)NC1=O)cn2CCCN(C)C  Cyclin-dependent kinase 7/ cyclin H (Homo sapiens) (UniProt P51946+P50613)          50%
15  COc1cc2c(cc1OC)-c1n[nH]c(Nc3cccc(F)c3)c1C2  Cyclin-dependent kinase 7/ cyclin H (Homo sapiens) (UniProt P51946+P50613)          83%
16  COc1cc2nccc(Oc3ccc(NC(=S)NC(=O)c4ccccc4C)cc3)c2cc1OC  Cyclin-dependent kinase 7/ cyclin H (Homo sapiens) (UniProt P51946+P50613)          75%
17  CCN(CC)CCNC(=O)c1c(C)[nH]c(/C=C2\C(=O)Nc3ccc(Cl)cc32)c1C  Cyclin-dependent kinase 7/ cyclin H (Homo sapiens) (UniProt P51946+P50613)          15%
18  O=C1NC(=O)C(c2cn(CCCn3ccnc3)c3ccccc23)=C1Nc1ccccc1  Cyclin-dependent kinase 7/ cyclin H (Homo sapiens) (UniProt P51946+P50613)          77%
19  O=C1Nc2ccc(Cl)cc2/C1=C/c1cc(Cl)c(O)c(Cl)c1  Cyclin-dependent kinase 7/ cyclin H (Homo sapiens) (UniProt P51946+P50613)          84%
20  Oc1cccc(-c2nc(N3CCOCC3)c3oc4ncccc4c3n2)c1  Cyclin-dependent kinase 7/ cyclin H (Homo sapiens) (UniProt P51946+P50613)          86%
21  Nc1nccc(-c2c(-c3ccc(F)cc3)ncn2C2CCNCC2)n1  Cyclin-dependent kinase 7/ cyclin H (Homo sapiens) (UniProt P51946+P50613)         100%
22  O=C(CCCc1ccc(-c2ccccc2F)cc1)Nc1ccc(O)cc1  Cyclin-dependent kinase 7/ cyclin H (Homo sapiens) (UniProt P51946+P50613)          98%
